meta.source: ChEMBL document CHEMBL4811233

For Nonstructural protein 3 (Zika virus), measured pIC50 is reported for the entries below.
Numbers only, as −log10 of the molar value.

Study these solved cases before continuing.
| smilesNotation | pIC50 |
| --- | --- |
| NCc1ccc(-c2ccc(NCC3CCNCC3)nc2-c2ccc(-c3ccoc3)cc2)cc1 | 6.10 |
| NCc1ccc(-c2ncc(OC3CCNCC3)nc2-c2ccc(-c3ccoc3)cc2)cc1 | 5.80 |
| Ic1ccc(-c2ncc(OCCC3CCNCC3)nc2-c2ccc(I)cc2)cc1 | 5.33 |

Switching to the query record.
# input compound: `NCc1ccc(-c2nc(OCC3CCNCC3)cnc2-c2ccc(O)cc2)cc1` ; wanted: its pIC50
5.09
